# System: Ba/F3 EGFR del19/T790M/C797S cells
# Experiment: Ba/F3 EGFR del19/T790M/C797S cell growth inhibition test (CellTiter-Glo, 72 hours);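 note: compounds tested in tenfold steps from 10 µM down to 0.1 nM, with luminescence read on a microplate reader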
# Format: cell-based
# Reported Conditions: Ba/F3 cell line overexpressing EGFR del19/T790M/C797S, 72 hours, CellTiter-Glo; read-out: Ba/F3 EGFR del19/T790M/C797S cells, GI50
Experimental Endpoint: GI50 (nM)
All answers are understood in nM, so give the number only.

Answered examples (5):
>>> quantitative_result("CN1CCN(c2ccc(Nc3nc(Nc4ccccc4N(C)S(C)(=O)=O)c4cc[nH]c4n3)cc2F)CC1")
19
>>> quantitative_result("Cc1cc(N2CCN(C)CC2)ccc1Nc1nc(Nc2ccccc2N(C)S(C)(=O)=O)c2cc[nH]c2n1")
522
>>> quantitative_result("CN1CC2(CCN(c3ccc(Nc4nc(Nc5ccccc5N(C)S(C)(=O)=O)c5cc[nH]c5n4)cc3F)CC2)C1")
6
>>> quantitative_result("CN(c1ccccc1Nc1nc(Nc2ccc(N3CCC(N4CCOCC4)CC3)c(F)c2)nc2[nH]ccc12)S(C)(=O)=O")
73
>>> quantitative_result("CN1CCC2(CC1)CN(c1ccc(Nc3nc(Nc4ccccc4N(C)S(C)(=O)=O)c4cc[nH]c4n3)cc1F)C2")
95

Looking up CN1CCN(c2ccc(Nc3nc(Nc4ccccc4N(C)S(C)(=O)=O)c4c(F)c[nH]c4n3)cc2F)CC1 , I found its GI50 recorded as 46

Looking up CCN1CCN(c2ccc(Nc3nc(Nc4ccccc4N(CC)S(C)(=O)=O)c4cc[nH]c4n3)cc2F)CC1 , I found its GI50 recorded as 26

Looking up CN1CCN(c2c(F)cc(Nc3nc(Nc4ccccc4N(C)S(C)(=O)=O)c4cc[nH]c4n3)cc2F)CC1 , I found its GI50 recorded as 22

Looking up CN1CCN(c2ccc(Nc3nc(Nc4ccccc4N(C)S(C)(=O)=O)c4c(Cl)c[nH]c4n3)c(F)c2F)CC1 , I found its GI50 recorded as 93

Looking up CN1CCN(c2ccc(Nc3nc(Nc4ccccc4N(C)S(C)(=O)=O)c4c(Cl)c[nH]c4n3)cc2F)CC1 , I found its GI50 recorded as 7.9

Looking up CN1CCN(C2CCN(c3ccc(Nc4nc(Nc5ccccc5N(C)S(C)(=O)=O)c5cc[nH]c5n4)cc3F)CC2)CC1 , I found its GI50 recorded as 11
